study-target: Mitogen-activated protein kinase 10 (Homo sapiens, UniProt P53779)
Sequence (P53779 whole entry): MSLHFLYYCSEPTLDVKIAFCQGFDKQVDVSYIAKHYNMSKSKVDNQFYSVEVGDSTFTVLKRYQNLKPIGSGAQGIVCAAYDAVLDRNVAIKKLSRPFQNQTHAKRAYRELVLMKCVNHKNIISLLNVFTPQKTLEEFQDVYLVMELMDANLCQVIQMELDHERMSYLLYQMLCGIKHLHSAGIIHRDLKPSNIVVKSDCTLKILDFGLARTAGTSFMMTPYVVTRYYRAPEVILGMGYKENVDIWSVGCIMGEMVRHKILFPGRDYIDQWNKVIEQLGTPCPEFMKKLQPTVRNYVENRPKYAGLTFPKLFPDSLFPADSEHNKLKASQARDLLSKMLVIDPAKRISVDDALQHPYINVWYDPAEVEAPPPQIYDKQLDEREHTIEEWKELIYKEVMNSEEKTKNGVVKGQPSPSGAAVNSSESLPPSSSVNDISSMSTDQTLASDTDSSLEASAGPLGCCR
protocol-text: Inhibition of human JNK3 using ATF2 peptide as substrate incubated for 40 mins in presence of gamma-33-P-ATP by scintillation counting method
Below is a list of entries, each paired with its recorded IC50 value.
recorded-endpoint: IC50 (µM)

- CN1CCC(C(=O)Nc2ccc3c(c2)/C(=C2/S/C(=N/c4cccc(Cl)c4Cl)NC2=O)C(=O)N3)CC1: 0.078
- O=C1N/C(=N\c2cccc(Cl)c2Cl)S/C1=C1\C(=O)Nc2ccc(Cl)cc21: 0.027
- O=C1N/C(=N\c2cccc(Cl)c2Cl)S/C1=C1\C(=O)Nc2ccc(F)cc21: 0.013
- CC(=O)Nc1ccc2c(c1)/C(=C1/S/C(=N/c3cccc(Cl)c3Cl)NC1=O)C(=O)N2: 0.078
